Target: human PLK4 (Homo sapiens, UniProt O00444)
Construct: amino terminal GST fusion of residues 1-391 of human PLK4
Sequence (O00444 1-391): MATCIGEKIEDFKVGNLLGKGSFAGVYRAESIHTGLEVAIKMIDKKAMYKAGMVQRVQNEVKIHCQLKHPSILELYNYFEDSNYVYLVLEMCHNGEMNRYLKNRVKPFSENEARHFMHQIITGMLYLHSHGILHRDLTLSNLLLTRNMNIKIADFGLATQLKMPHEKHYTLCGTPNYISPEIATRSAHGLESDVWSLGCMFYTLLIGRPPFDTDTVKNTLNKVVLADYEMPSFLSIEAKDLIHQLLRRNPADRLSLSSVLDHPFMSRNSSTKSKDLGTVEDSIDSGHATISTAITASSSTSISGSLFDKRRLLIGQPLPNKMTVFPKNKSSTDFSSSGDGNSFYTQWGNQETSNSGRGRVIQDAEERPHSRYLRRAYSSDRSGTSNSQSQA
Test: PLK4 inhibition assay (indirect ELISA)
Details: 15 μM ATP
Measured Property: IC50

{"columns": ["Molecule", "Measurement Target", "IC50"],
 "data": [
  ["O=C(Nc1ccc2[nH]nc(-c3ccc(OC4CCOCC4)cc3)c2c1)C(c1ccsc1)N1CCCC1 (centres unmarked) [Example A29]", "human PLK4 (Homo sapiens, UniProt O00444)", "< 50 nM"],
  ["O=C(NC(c1ccsc1)C1CC1)c1ccc2[nH]nc(-c3ccc(OC4CCN(CCO)CC4)cc3)c2c1 (centres unmarked) [Example A117]", "human PLK4 (Homo sapiens, UniProt O00444)", "< 50 nM"],
  ["CCC(CC)C(NC(=O)c1ccc2[nH]nc(-c3ccc(O[C@H]4C[C@H]5CC[C@@H](C4)N5C=O)cc3)c2c1)c1ccccn1 (some centres unmarked) [Example A342]", "human PLK4 (Homo sapiens, UniProt O00444)", "< 50 nM"],
  ["CN1CCC(C(NC(=O)c2ccc3[nH]nc(-c4ccc(N5CCOCC5)cc4)c3c2)c2ccccc2)CC1 (centres unmarked) [Example A85]", "human PLK4 (Homo sapiens, UniProt O00444)", "< 50 nM"],
  ["Cc1ccccc1CC(=O)Nc1ccc2[nH]nc(-c3ccc(OC4CCN(C)CC4)cc3)c2c1 [Example A92]", "human PLK4 (Homo sapiens, UniProt O00444)", "< 50 nM"],
  ["CCOC(C(=O)Nc1ccc2[nH]nc(-c3ccc(OC4CCN(C)CC4)cc3)c2c1)c1ccccc1 (centres unmarked) [Example A181]", "human PLK4 (Homo sapiens, UniProt O00444)", "< 50 nM"]
]}

// lookup IC50 for CC(C)CC(NC(=O)c1ccc2[nH]nc(-c3ccc(OC4CC5CCC(C4)N5C4COC4)cc3)c2c1)c1ccccn1 (centres unmarked) [Example A373]
< 50 nM

// lookup IC50 for O=C(NCC1(c2ccccc2)CCOCC1)c1ccc2[nH]nc(-c3ccc(N4[C@@H]5CC[C@H]4C[C@@H](O)C5)cc3)c2c1 [Example A492]
< 50 nM

// lookup IC50 for CC[C@H](NC(=O)c1ccc2[nH]nc(-c3ccc(OC4CCN(C5COC5)CC4)cc3)c2c1)c1ccccc1Cl [Example A193]
< 50 nM

// lookup IC50 for O=CN1CCC(Oc2ccc(-c3n[nH]c4ccc(NC(=O)C(c5ccsc5)N5CCCC5)cc34)cc2)CC1 (centres unmarked) [Example A118]
< 50 nM

// lookup IC50 for O=C(N[C@H](CCO)c1ccccc1)c1ccc2[nH]nc(-c3ccc(N4[C@@H]5CC[C@H]4COC5)cc3)c2c1 [Example A423]
< 50 nM

// lookup IC50 for CN1[C@@H]2CC[C@H]1C[C@@H](Oc1ccc(-c3n[nH]c4ccc(C(=O)NCC5(c6cccs6)CCOCC5)cc34)cc1)C2 [Example A445]
< 50 nM

// lookup IC50 for CN1[C@@H]2CC[C@H]1C[C@@H](Oc1ccc(-c3n[nH]c4ccc(C(=O)NC(c5ccccc5F)C5CC5)cc34)cc1)C2 (some centres unmarked) [Example A282]
< 50 nM

// lookup IC50 for Cc1ccccc1C(C(=O)Nc1ccc2[nH]nc(-c3ccc(OC4CCN(C)CC4)cc3)c2c1)N1CCCC1 (centres unmarked) [Example A133]
< 50 nM

###

Target: human TTK (Homo sapiens)
Construct: amino terminal GST fusion of full length human TTK; purchased Invitrogen
Sequence (P33981 whole entry, the tested form may be a part): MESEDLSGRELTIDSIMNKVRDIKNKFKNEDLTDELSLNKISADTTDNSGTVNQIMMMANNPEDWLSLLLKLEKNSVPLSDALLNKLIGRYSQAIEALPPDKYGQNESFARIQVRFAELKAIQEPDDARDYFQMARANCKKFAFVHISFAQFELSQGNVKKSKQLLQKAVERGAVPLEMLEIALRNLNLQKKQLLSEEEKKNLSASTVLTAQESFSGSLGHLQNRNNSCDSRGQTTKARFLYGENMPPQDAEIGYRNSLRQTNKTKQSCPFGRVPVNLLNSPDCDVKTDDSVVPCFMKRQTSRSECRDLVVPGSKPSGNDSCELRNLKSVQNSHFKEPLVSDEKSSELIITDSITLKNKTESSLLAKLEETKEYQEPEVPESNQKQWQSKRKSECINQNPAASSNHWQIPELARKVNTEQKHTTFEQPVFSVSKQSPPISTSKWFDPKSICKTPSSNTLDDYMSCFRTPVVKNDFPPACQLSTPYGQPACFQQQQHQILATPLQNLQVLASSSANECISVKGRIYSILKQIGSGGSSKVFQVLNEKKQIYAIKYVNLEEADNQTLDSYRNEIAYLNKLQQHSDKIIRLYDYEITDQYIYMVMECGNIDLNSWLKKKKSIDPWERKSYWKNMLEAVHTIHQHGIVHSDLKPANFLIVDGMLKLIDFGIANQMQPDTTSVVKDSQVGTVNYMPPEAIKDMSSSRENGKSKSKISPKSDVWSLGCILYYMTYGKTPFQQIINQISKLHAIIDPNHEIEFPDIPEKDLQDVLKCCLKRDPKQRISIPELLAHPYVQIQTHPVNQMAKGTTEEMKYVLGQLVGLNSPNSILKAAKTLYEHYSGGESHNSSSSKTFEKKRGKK
Test: TTK inhibition assay (indirect ELISA)
Type: biochemical
Settings: read-out: TTK IC50 Range
pIC50: −log10 of the molar value.
Measured Property: pIC50

{"columns": ["Compound", "Measurement Target", "pIC50"],
 "data": [
  ["CC1=CC(C)(C)Oc2ccc(-c3n[nH]c4ccc(C(=O)N[C@H](c5ccccn5)C5CC5)cc34)cc21", "human TTK (Homo sapiens)", "> 7.00"],
  ["O=C(NCC1(c2ccccc2)CCOCC1)c1ccc2[nH]nc(-c3ccc(N4[C@@H]5CC[C@H]4C[C@@H](O)C5)cc3)c2c1", "human TTK (Homo sapiens)", "> 7.00"],
  ["CC(C)C(NC(=O)c1ccc2[nH]nc(-c3ccc(O[C@H]4C[C@H]5CC[C@@H](C4)N5C)cc3)c2c1)c1ccccc1F (some centres unmarked)", "human TTK (Homo sapiens)", "> 7.00"],
  ["CN1CC2(CC(O)c3cc(-c4n[nH]c5ccc(C(=O)N[C@H](c6ccccc6)C6CC6)cc45)ccc3O2)C1 (some centres unmarked)", "human TTK (Homo sapiens)", "6.30 to 7.00"],
  ["O=C(NC(c1ccccn1)C1CCCC1)c1ccc2[nH]nc(-c3ccc(OC4CCN(C5COC5)CC4)cc3)c2c1 (centres unmarked)", "human TTK (Homo sapiens)", "> 7.00"]
]}

// lookup pIC50 for O=C(N[C@H](c1ccccn1)C1CC1)c1cc2c(-c3ccc(N4C5CCC4CC(O)C5)cc3)n[nH]c2cc1F (some centres unmarked)
> 7.00

// lookup pIC50 for CN1CCC(Oc2ccc(-c3n[nH]c4ccc(C(=O)NCC5(N6CCOCC6)CCCC5)cc34)cc2)CC1
> 7.00

###

Molecular target: MUSK (Homo sapiens, UniProt O15146)
Construct: purchased Millipore Corporation
Sequence (O15146 24-869): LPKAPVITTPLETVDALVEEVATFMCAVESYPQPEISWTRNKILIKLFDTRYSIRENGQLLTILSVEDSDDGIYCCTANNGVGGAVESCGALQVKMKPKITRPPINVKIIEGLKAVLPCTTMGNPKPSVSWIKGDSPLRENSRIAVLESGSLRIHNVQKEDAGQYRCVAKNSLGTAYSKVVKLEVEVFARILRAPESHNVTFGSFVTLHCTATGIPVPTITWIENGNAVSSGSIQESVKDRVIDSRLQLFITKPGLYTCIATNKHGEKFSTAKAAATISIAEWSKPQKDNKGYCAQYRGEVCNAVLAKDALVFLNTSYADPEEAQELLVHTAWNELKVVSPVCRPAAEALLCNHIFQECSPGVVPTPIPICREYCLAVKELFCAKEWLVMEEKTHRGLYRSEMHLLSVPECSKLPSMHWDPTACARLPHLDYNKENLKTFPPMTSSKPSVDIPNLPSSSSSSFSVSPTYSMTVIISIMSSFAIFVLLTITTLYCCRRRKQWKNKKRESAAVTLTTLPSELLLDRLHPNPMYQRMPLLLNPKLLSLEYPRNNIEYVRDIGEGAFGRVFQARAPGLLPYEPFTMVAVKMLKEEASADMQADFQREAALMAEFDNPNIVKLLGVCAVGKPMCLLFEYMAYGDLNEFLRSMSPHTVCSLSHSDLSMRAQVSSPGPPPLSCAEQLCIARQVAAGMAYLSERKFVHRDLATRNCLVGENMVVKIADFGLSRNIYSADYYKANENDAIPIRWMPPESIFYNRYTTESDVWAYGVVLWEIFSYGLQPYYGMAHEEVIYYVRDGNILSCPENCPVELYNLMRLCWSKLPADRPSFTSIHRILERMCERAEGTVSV
Assay: Panel of 270 human kinases (Millipore)
Assay type: biochemical
Measured Property: inhibition at 1 µM (%)

Study these solved cases before continuing.
{"columns": ["Compound", "Unit Annotation", "Experimental Value"],
 "data": [
  ["CC(C)[C@H](NC(=O)c1ccc2[nH]nc(-c3ccc(OC4CC5CCC(C4)N5C4COC4)cc3)c2c1)c1ccccc1Cl (stereo partly drawn)", "%", 91],
  ["O=C(N[C@@H](c1ccccn1)C1CC1)c1ccc2[nH]nc(-c3ccc(N4C5CCC4CC(O)C5)cc3)c2c1 (stereo partly drawn)", "%", 53],
  ["CC(C)[C@H](NC(=O)c1ccc2[nH]nc(-c3ccc(N4CCN(C5COC5)CC4)cc3)c2c1)c1ccccc1Cl", "%", 94],
  ["O=C(N[C@H](c1ccccn1)C1CCCC1)c1ccc2[nH]nc(-c3ccc(N4CCN(C5COC5)CC4)cc3)c2c1", "%", 96]
]}

[P] CC1=CC2(CCN(C)CC2)Oc2ccc(-c3n[nH]c4ccc(C(=O)N[C@H](c5ccccn5)C5CCCC5)cc34)cc21
[Q] CC(C)C[C@@H](NC(=O)c1ccc2[nH]nc(-c3ccc(N4CCN(C5COC5)CC4)cc3)c2c1)c1ccccc1Cl
Between the entries labeled P and Q , whose measured inhibition at 1 µM is lower? Return value: the label identifying the chosen record.
Q

###

Here, each record is paired with measured GI50 data.
Tested on: TICs (Ovarian 2393A)
Test: Ovarian tumor-initiating cell growth inhibition (Alamar Blue)
Assay type: cell-based
Conditions: 144 h; Ovarian 2393A TICs, 6 days; read-out: Tumor Initiating Cell GI50 Range Ovarain 2393A

Study these solved cases before continuing.
{"columns": ["Compound", "GI50"],
 "data": [
  ["CC(C)(O)CN1CCC(Oc2ccc(-c3n[nH]c4ccc(C(=O)N[C@H](c5ccccn5)C5CC5)cc34)cc2)CC1", "100 to 500 nM"],
  ["CC(C)C(NC(=O)c1ccc2[nH]nc(-c3ccc(O[C@H]4C[C@H]5CC[C@@H](C4)N5C4COC4)cc3)c2c1)c1ccccn1 (some centres unmarked)", "100 to 500 nM"],
  ["CN1CCC(Oc2ccc(-c3n[nH]c4ccc(C(=O)NC(c5ccccn5)C5CC5)cc34)cc2S(C)(=O)=O)CC1 (centres unmarked)", "> 500 nM"],
  ["O=C(NCC1(c2ccccc2)CCOCC1)c1ccc2[nH]nc(-c3ccc(N4[C@@H]5CC[C@H]4COC5)cc3)c2c1", "< 100 nM"],
  ["CC(C)[C@H](NC(=O)c1ccc2[nH]nc(-c3ccc(N4CCCN(C5COC5)CC4)cc3)c2c1)c1ccccc1Cl", "< 100 nM"]
]}

// lookup GI50 for CC1=CC2(CCN(C)CC2)Oc2ccc(-c3n[nH]c4ccc(C(=O)NCC5(N6CCOCC6)CCCCC5)cc34)cc21
< 100 nM

// lookup GI50 for CN1[C@@H]2CCC[C@H]1C[C@@H](Oc1ccc(-c3n[nH]c4ccc(C(=O)NC(c5ccccn5)C5CCCC5)cc34)cc1)C2 (some centres unmarked)
100 to 500 nM

// lookup GI50 for CC1=CC2(CCN(C)CC2)Oc2ccc(-c3n[nH]c4ccc(C(=O)N[C@H](c5ccccn5)C5CC5)cc34)cc21
< 100 nM

###

Here, each record is paired with measured IC50 data.
Target: human TTK (Homo sapiens)
Construct: amino terminal GST fusion of full length human TTK; purchased Invitrogen
Assay: TTK inhibition assay (indirect ELISA)
Assay type: biochemical
Details: read-out: TTK IC50 Range

Study these solved cases before continuing.
{"columns": ["Compound", "Experimental Value"],
 "data": [
  ["CC(C)CC(NC(=O)c1ccc2[nH]nc(-c3ccc(OC4CN(C5COC5)C4)cc3)c2c1)c1ccccc1Cl (stereo not drawn)", "< 100 nM"],
  ["O=C(N[C@H](c1ccccn1)C1CCCC1)c1ccc2[nH]nc(-c3ccc(N4CCN(C5COC5)CC4)cc3)c2c1", "< 100 nM"]
]}

Attention now shifts to the item below.
// lookup IC50 for CN1C2CCC1CC(Oc1ccc(-c3n[nH]c4ccc(C(=O)N[C@@H](c5ccccc5)C5CC5)cc34)cc1)C2 (stereo partly drawn)
< 100 nM
